- assayed_system: CFP1 CXXC domain, longer construct (Homo sapiens, UniProt Q9P0U4 152-222)
- Sequence (Q9P0U4 152-222): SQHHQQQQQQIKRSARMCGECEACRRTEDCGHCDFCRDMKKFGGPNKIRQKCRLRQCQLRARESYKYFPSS
- assay_method_text: ITC
measure_name: pKd
Scale explanation: pKd corresponds to minus log10 of a concentration expressed in moles per litre.

(Q) Quick check: pKd of CCGG1 (dsDNA) DNA 1: GCCACCGGTGGC DNA 2: GCCACCGGTGGC ?
(A) 5.57
